All figures here come from the supplement of paper PMC7125110.

Consider the following variants; for each one, report its self-cleavage kobs at 2500 uM GlcN6P.
B1: glmS ribozyme (parent)
chain: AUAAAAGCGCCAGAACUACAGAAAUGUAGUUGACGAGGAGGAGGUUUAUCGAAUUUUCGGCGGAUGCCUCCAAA

Variants of: B1
measurement.notes: self-cleavage kobs at 2500 uM GlcN6P; higher = faster cleavage; RNA array
condition.description: with glucosamine-6-phosphate
This sample holds only a part of the variants without activity.
Report as a plain number; the unit s⁻¹ is understood.

Consider the variant A12U A48U C70G and give its recorded self-cleavage kobs at 2500 uM GlcN6P.
0.000115

Consider the variant C16U U56A and give its recorded self-cleavage kobs at 2500 uM GlcN6P.
0.00493

Consider the variant U46A U65C and give its recorded self-cleavage kobs at 2500 uM GlcN6P.
0.000426

Consider the variant G29C C58U and give its recorded self-cleavage kobs at 2500 uM GlcN6P.
2.68e-05

Consider the variant A15U U31A and give its recorded self-cleavage kobs at 2500 uM GlcN6P.
0.000874

Consider the variant A48G C70U and give its recorded self-cleavage kobs at 2500 uM GlcN6P.
0.000179

Consider the variant U47A C67U and give its recorded self-cleavage kobs at 2500 uM GlcN6P.
0.00497

Consider the variant U56G C70G and give its recorded self-cleavage kobs at 2500 uM GlcN6P.
9.14e-05

Consider the variant U55G A64U and give its recorded self-cleavage kobs at 2500 uM GlcN6P.
6.75e-05

Consider the variant A15G U31G A39U and give its recorded self-cleavage kobs at 2500 uM GlcN6P.
0.000869

Consider the variant U31C A53U C67U and give its recorded self-cleavage kobs at 2500 uM GlcN6P.
0.00045

Consider the variant A12U G44C and give its recorded self-cleavage kobs at 2500 uM GlcN6P.
0.000168

Consider the variant A42G C50U and give its recorded self-cleavage kobs at 2500 uM GlcN6P.
3.96e-05

Consider the variant A14G A36G and give its recorded self-cleavage kobs at 2500 uM GlcN6P.
3.69e-05

Consider the variant A14G C50G C68U U69A C71G and give its recorded self-cleavage kobs at 2500 uM GlcN6P.
0.000379

Consider the variant G13A U54C C70U and give its recorded self-cleavage kobs at 2500 uM GlcN6P.
0.000291

Consider the variant G38U C50G G63C and give its recorded self-cleavage kobs at 2500 uM GlcN6P.
7.85e-05

Consider the variant A6G C16U G29C and give its recorded self-cleavage kobs at 2500 uM GlcN6P.
6.69e-05

Consider the variant A36G C50G C67G and give its recorded self-cleavage kobs at 2500 uM GlcN6P.
0.000124

Consider the variant C10U G13C A15U C16U C50G and give its recorded self-cleavage kobs at 2500 uM GlcN6P.
0.000146
